# Tested on: SNB-75 CNS
# assay summary: NCI-60 one-dose screen, 48 h (100 = growth as untreated, 0 = no growth, -100 = all killed)
# study conditions: 10 µM
Compounds without any hit were thinned out: in the full panel of roughly 83,000, 20% have a hit.
Use class 1 when the recorded growth is no lower than 80%; use class 0 when it is lower.

Some solved cases for reference:
COc1ccc2c(c1)O/C(=C\c1ccc([N+](=O)[O-])o1)C2=O; class 0
O=C1OCC2=C1C(c1ccc(Cl)c(Cl)c1)c1cc3c(cc1N2CCO)OCCO3 (configuration not stated); class 0

Exam item: decide whether the reported growth for "Cc1ccc(C(=O)Nc2cccc(F)c2)cc1NC(=O)C1(c2ncnc3[nH]ccc23)CC1" is at least 80%. class 1

Exam item: decide whether the reported growth for Nc1ncn(C2OC(CO)C(O)C2O)c(=O)n1 (configuration not stated) is at least 80%. class 0

Exam item: decide whether the reported growth for "Clc1nc(Cl)c2c(ncn2C/C=C\Cn2cnc3c(Cl)nc(Cl)nc32)n1" is at least 80%. class 0

Exam item: decide whether the reported growth for "FC(F)(F)c1ccc(-c2cnc(Cl)nc2N2CCC3(CC2)OCCO3)cc1" is at least 80%. class 1

====

# Tested on: SF-268 CNS
# assay summary: NCI-60 one-dose screen, 48 h (100 = growth as untreated, 0 = no growth, -100 = all killed)
# study conditions: 10 µM
Compounds without any hit were thinned out: in the full panel of roughly 83,000, 20% have a hit.
Reported growth values follow for various molecules
Enter your answer as a number in %; do not include the unit.

Recorded results for 3 molecules are shown here.
N#Cc1ncc(-c2cc(F)c(F)c(F)c2)c(NC2CCCCCC2)n1; 82.3
Fc1ccc2nc(-c3nc(-c4ccccc4)n4ccccc34)[nH]c2c1; -38.6
CCOCCOCCOCCOCCOCCOCCOCCOCCOCCO (tested in a mixture with another compound); 21.8

Tell me its growth given "CC/C(=C(/c1ccc(OCCN(C)C)cc1)c1ccc(OC(=O)CCC(=O)c2c(C)[nH]c(/C=C3\N=C(c4ccc[nH]4)C=C3OC)c2C)cc1)c1ccccc1" as the entry. 31.2

Tell me its growth given "CC(=O)CSC(C)=O" as the entry. 105

Tell me its growth given "COc1ccc(-c2nn(-c3cccc(NC(=O)Nc4ccccc4)c3)cc2-c2ccncc2)cc1Cl" as the entry. 27.9

====

Reported growth values follow for various molecules
# System: HT29 colon
# assay summary: NCI-60 one-dose screen, 48 h (100 = growth as untreated, 0 = no growth, -100 = all killed)
# study conditions: 10 µM
Compounds without any hit were thinned out: in the full panel of roughly 83,000, 20% have a hit.
Enter your answer as a number in %; do not include the unit.

Recorded results for 5 molecules are shown here.
COc1cc(-c2cc(/C=C/C(=O)c3ccc(N)cc3)[nH]n2)cc(OC)c1OC; 2.34
CCCCCCCCCCCCCCCC(=O)OC1[C@@H](OC(=O)CCCCCCCCCCCCCCC)[C@@H](C(=O)N[C@@H](CCCCN)C(=O)OC)O[C@H]1n1cnc2c(=O)[nH]c(NC(=O)C(C)C)nc21 (some centres not stated); 98.2
O=[N+]([O-])c1ccc(Oc2cccnc2)c([N+](=O)[O-])c1; -4.49
CC/C(C)=C(\C)C(=O)O; 106
O=C(Nc1cccc(-n2cc(-c3ccncc3)c(-c3cc(O)cc(Cl)c3)n2)c1)c1cc(C(F)(F)F)cc(C(F)(F)F)c1; 19.7

Tell me its growth given "CN1CCCNc2c(c(=O)c2=O)NCCCN(C)CCCNc2c(c(=O)c2=O)NCCCN(C)CCCNc2c(c(=O)c2=O)NCCCN(C)CCCNc2c(c(=O)c2=O)NCCCN(C)CCCNc2c(c(=O)c2=O)NCCCN(C)CCCNc2c(c(=O)c2=O)NCCCN(C)CCCNc2c(c(=O)c2=O)NCCC1" as the entry. 59.3

Tell me its growth given "O=C(Nc1cccc(Br)c1)c1cc(=O)[nH]c2ccccc12" as the entry. 107

====

# Test system: EKVX NSCLC
# assay summary: NCI-60 one-dose screen, 48 h
# study conditions: 10 µM
About 83,000 compounds went through this panel and 20% of them were active in at least one assay; those are over-represented in the sample as a whole. The source made the active and inactive calls. The calls were made as follows: active = growth percent below 10; inactive = the rest.
Field 'call' accepts active, inactive

Some solved cases for reference:
Cc1cc(N(CCCNc2ccnc3cc(Cl)ccc23)Cc2ccc3c(c2)OCO3)nc(N2CCOCC2)n1; inactive
CCOCCOCCOCCOCCOCCOCCOCCOCCOCCO (tested in a mixture with another compound); inactive
CC(C)=CCc1cc(O)cc2c1OC(C=C(C)C)C1=C2C(=O)C2=C(NCCS2(=O)=O)C1=O (stereo not given); active
Cc1cccc2c(NCCN(C)C)c3cccc(C(=O)NCCN(C)C)c3nc12; inactive
O=C(/C(=C/c1ccccc1)CN1CCCCC1)c1ccccc1; active

Hi, sorry to bother you, what did the test record for "O=[N+]([O-])c1cccc(-c2ncc(-c3ccc(Cl)cc3Cl)[nH]2)c1" ? inactive

Hi, sorry to bother you, what did the test record for CCCCN(CCCC)CCCCCCCCC(O)c1cc2ccccc2c2ccccc12 (stereo not given) ? inactive

====

# Test system: NCI-H460 lung
# assay summary: NCI-60 one-dose screen, 48 h (100 = growth as untreated, 0 = no growth, -100 = all killed)
# study conditions: 10 µM
The panel holds about 83,000 compounds, 20% with a hit somewhere; the sample as a whole holds those more often.
assay endpoint: growth (%)
Enter your answer as a number in %; do not include the unit.

COc1ccc(/C=C/C(=O)Nc2ccc(-c3nc4ccc(F)cc4s3)cc2)cc1; 99.1

Tell me its growth given "O=C1c2ccc3c4c(ccc(c24)C(=O)N1CCNCc1ccccc1)C(=O)N(CCNCc1ccccc1)C3=O" as the entry. -26.7

====

# Tested on: LOX IMVI melanoma
# assay summary: NCI-60 one-dose screen, 48 h
# study conditions: 10 µM
About 83,000 compounds went through this panel and 20% of them were active in at least one assay; those are over-represented in the sample as a whole. Activity calls are given as the source filed them. The calls were made as follows: active = growth percent below 10; inactive = the rest.
Field 'call' accepts active, inactive

O=C1OCC2=C1C(c1ccc(Cl)c(Cl)c1)c1cc3c(cc1N2CCO)OCCO3 (stereo not given); inactive
Cc1nc2ccc(CN(C)c3ccc(C(=O)N[C@@H](CCC(=O)O)C(=O)O)s3)cc2c(=O)[nH]1; inactive
O=C(Nc1nc(-c2ccccc2Cl)cs1)c1cc(-c2ccc(Cl)cc2)nc2ccc(Cl)cc12; inactive
Cc1cc(O)c(C(C)(C)C)cc1Sc1cc(C(C)(C)C)c(O)cc1C; inactive
O=C(Nc1cccc(Br)c1)c1cc(=O)[nH]c2ccccc12; inactive

Hi, sorry to bother you, what did the test record for O=C(CC(C(=O)c1ccccc1)N1CCOCC1)c1ccccc1 (stereo not given) ? inactive

Hi, sorry to bother you, what did the test record for "COc1cc(Cc2cc(-c3ccc(Cl)cc3)n[nH]c2=O)ccc1O" ? inactive

Hi, sorry to bother you, what did the test record for "O=C(Nc1ccncc1)C(=O)c1cn(S(=O)(=O)c2ccc(F)cc2)c2ccccc12" ? inactive

Hi, sorry to bother you, what did the test record for "Cc1nc2ccccc2c(N)c1-c1cc(C)c2c(C)nc3ccccc3c2n1" ? active

Hi, sorry to bother you, what did the test record for "CS(=O)(=O)Nc1cccc(-c2cc(-c3ccccc3Cl)c(C#N)c(N)n2)c1" ? inactive

====

Reported growth values follow for various molecules
# System: PC-3 prostate
# assay summary: NCI-60 one-dose screen, 48 h (100 = growth as untreated, 0 = no growth, -100 = all killed)
# study conditions: 10 µM
This is part of a sample that, as a whole, favours compounds with a hit. Of some 83,000 tested, about 20% had one in any assay.
Enter your answer as a number in %; do not include the unit.

C#Cc1ccc(-n2c(/C=C/c3cc(OC)cc(OC)c3)nc3ncccc3c2=O)cc1; 68.5
COc1ccc(-c2nc(-c3nc4ccc(Cl)cc4[nH]3)c3ccccn23)cc1; 55.9
NC(=O)CC1(c2ccccc2)CCCCC1; 99.4
Nc1ncnc2[nH]c(=O)[nH]c12; 201

Tell me its growth given "Cc1cc(Cl)nc(N(CCCNc2ccnc3cc(Cl)ccc23)Cc2cccs2)n1" as the entry. 10.1

Tell me its growth given CC(=O)C1CCC2C3CC(F)C4=CC(=O)CCC4(C)C3C(O)CC12C (stereo unspecified) as the entry. 90.6

Tell me its growth given "O=C1NC(=O)c2ncccc21" as the entry. 107

Tell me its growth given "O=C(CCCCCCC(=O)Nc1cccnc1)NO" as the entry. 26.3

Tell me its growth given "COc1ccc(-c2nc(-c3nc4cc(Cl)c(F)cc4[nH]3)c3ccccn23)cc1" as the entry. 34.6

Tell me its growth given "Nc1ccccc1NC(=O)CCCCC(=O)Nc1ccc2c(c1)/C(=C/c1ccc[nH]1)C(=O)N2" as the entry. 81.6

Tell me its growth given "C#Cc1ccc(-n2c(/C=C/c3ccc4ccccc4n3)nc3ncccc3c2=O)cc1" as the entry. -28.6
